Cited source: ChEMBL document CHEMBL3779813

# key: entry, value: IC50
System: T47D
Test Name: Antiproliferative activity against human T47D cells after 72 hrs by CCK8 assay
Format: functional, cell-based

// solved cases for IC50 follow
COc1ccc(C2CC(c3ccc(Cl)cc3)=NN2C(=O)c2nc3ccccc3s2)cc1 (stereo unspecified)    6.6 µM
CC[C@@]1(O)C(=O)OCc2c1cc1n(c2=O)Cc2cc3ccccc3nc2-1    4.1 µM
COc1ccc(C2CC(c3ccccc3)=NN2C(=O)c2ccncc2)cc1 (stereo unspecified)    > 50 µM
COc1ccccc1C1=NN(C(=O)c2ccc([N+](=O)[O-])o2)C(c2ccc([N+](=O)[O-])cc2)C1 (stereo unspecified)    > 50 µM
COc1cc([C@@H]2c3cc4c(cc3[C@@H](O[C@@H]3O[C@@H]5CO[C@@H](C)O[C@H]5[C@H](O)[C@H]3O)[C@H]3COC(=O)[C@H]23)OCO4)cc(OC)c1O [ETOPOSIDE]    6.4 µM

Shifting focus to the compound that follows.
IN: # query: IC50 of entry O=C(c1ccncc1)N1N=C(c2ccc(Cl)cc2)CC1c1ccco1 (stereo unspecified)
OUT: 7.9 µM
